Species: Rattus norvegicus
Method description: Open TG-GATES - Regimen: Single
Assay type: toxicity, organism-based, Sprague-Dawley
Design: regimen Single, gender Male, age 6 weeks
Setup conditions: in vivo, po, 1000 mg/kg, 9 h, tissue Plasma, route gavage, dose level High
Documented CRE across a set of compounds
Kindly provide the numeric value in mg/dL only, without the unit symbol.

// worked examples, CRE included
O=C(O)c1cc(/N=N/c2ccc(S(=O)(=O)Nc3ccccn3)cc2)ccc1O [SULFASALAZINE] ... 0.4
CCc1cc(C(N)=S)ccn1 [ETHIONAMIDE] ... 0.5
C[C@H](CS)C(=O)N1CCC[C@H]1C(=O)O [CAPTOPRIL] ... 0.4

// Clc1ccccc1CN1CCc2sccc2C1 [TICLOPIDINE] : CRE value = 0.4

The compound listed as O=C(O)c1cn(C2CC2)c2cc(N3CCNCC3)c(F)cc2c1=O [CIPROFLOXACIN] shows CRE equal to 0.5
